Provide the recorded LC retention time for the entries that follow.
assay: RP, Agilent InfinityLab Poroshell 120 EC-C18, 100 × 3 mm, 2.7 µm, 25 °C, 0.4 mL/min, estimated dead time 1.1 min; A: water + 0.1% formic acid, pH 3; B: acetonitrile + 0.1% formic acid, pH 3; gradient (min/%B) 0/5 10/25 20/40 24/90 25/90 26/5 30/5; conditions: stereoisomer not certain
Give just the number in min; leave the unit off.

Prompt: Which value of LC retention time has been reported for `O=c1oc2cc(O)ccc2c2cc(O)ccc12` in the records?
Completion: 12.7

Prompt: One more compound: `COc1cc(C=O)ccc1O`
Completion: 8.04

Prompt: Could you do the same for O=C(O)c1ccc(O)cc1O [2,4-Dihydroxybenzoic acid] , please?
Completion: 6.36

Prompt: What about `COc1cc(-c2oc3cc(O)cc(O)c3c(=O)c2O)ccc1O` ?
Completion: 17.6

Prompt: How about this compound: `O=c1oc2cc(O)ccc2c2c(O)cc(O)cc12`
Completion: 11.2

Prompt: Similarly, O=c1c(O)c(-c2ccc(OS(=O)(=O)O)c(O)c2)oc2cc(O)cc(O)c12 [Quercetin 4-O-sulfate] ?
Completion: 12.9

Prompt: Ok, now `O=c1oc2cc(O)ccc2c2ccc(O)cc12`
Completion: 13.1

Prompt: How about `O=c1oc2c(O)c(O)ccc2c2cc(O)c(O)cc12` ?
Completion: 8.24

Prompt: Now consider `O=c1ccc2c(O)c3ccoc3cc2o1` .
Completion: 13.9

Prompt: Next compound up: O=C(C=Cc1ccc(O)c(O)c1)OC(Cc1ccc(O)c(O)c1)C(=O)O (stereo not drawn)
Completion: 11.5

Prompt: Could you do the same for O=C(O)C1OC(Oc2ccc3c(c2)oc(=O)c2ccc(O)cc23)C(O)C(O)C1O (stereo not drawn) [Isourolithin A glucuronide] , please?
Completion: 8.44

Prompt: // repeat for COc1ccc(C2CC(=O)c3c(O)cc(OC4OC(COC5OC(C)C(O)C(O)C5O)C(O)C(O)C4O)cc3O2)cc1O (stereo not drawn) and report
Completion: 10.8

Prompt: Okay, and `Cc1c(O)cc2c(c1O)C(=O)c1ccccc1C2=O` ?
Completion: 23.8

Prompt: Consider next the compound Oc1cc(O)c2c(c1)OC(c1cc(O)c(O)c(O)c1)C(O)C2 (single isomer, unassigned; (-)) [(-)-Epigallocatechin] in the same way.
Completion: 4.79

Prompt: Now consider `Oc1ccc(C=Cc2cc(O)cc(O)c2)cc1` and answer again.
Completion: 14.7

Prompt: Item: O=C(C=Cc1ccc(O)c(O)c1)OC1CC(O)(C(=O)O)CC(O)C1O (stereo not drawn)
Completion: 5.48

Prompt: Could you do the same for `Oc1cc(O)c2cc(O)c(-c3ccc(O)c(O)c3)[o+]c2c1` , please?
Completion: 5.63

Prompt: Same for `O=C(O)c1cc(O)ccc1O`
Completion: 5.44

* * *

experiment: RP, Waters ACQUITY UPLC BEH C18, 100 × 2.1 mm, 1.7 µm, 65 °C, 0.4 mL/min, estimated dead time 0.55 min; A: water + 0.1% formic acid, pH 3; B: 80% acetonitrile + 20% acetone + 0.1% formic acid, pH 3; gradient (min/%B) 0/0 5/100 5.5/0 6/0; settings: stereoisomer not certain
Would you kindly list LC retention time for each of these compounds?
Give a bare numeral; the unit min is implied.

Prompt: Fill in: LC retention time of COc1ccc(C2CC(=O)c3c(O)cc(O)cc3O2)cc1O (stereo not given) is ___
Completion: 2.93

Prompt: And for O=C(O)CNC(=O)c1cccc(O)c1 [3-Hydroxyhippuric acid] ?
Completion: 1.58

Prompt: Try the compound Cc1c(C)c2c(c(C)c1O)CCC(C)(CCCC(C)CCCC(C)CCCC(C)C)O2 (stereo not given)
Completion: 5.55

Prompt: Another compound: `Cn1c(=O)[nH]c2ncn(C)c2c1=O`
Completion: 1.48

Prompt: Ok, now O=C1OCC(Cc2cccc(O)c2)C1Cc1cccc(O)c1 (stereo not given)
Completion: 2.88
